Species: Rattus norvegicus
Experiment: Open TG-GATES - Regimen: Daily Repeat
Format: toxicity, organism-based, Sprague-Dawley
Design: regimen Daily Repeat, gender Male, age 6 weeks
Conditions: in vivo, po, 0 mg/kg, […], tissue Blood, route gavage, dose level Control, time 14 day
metric: MCHC
Param answer (str): number followed by unit.

Input line: What does the record list as MCHC for CN(C)CCC=C1c2ccccc2CCc2ccccc21 ?
Output line: 33.3%

Input line: And for CCc1cc(C(N)=S)ccn1 [ETHIONAMIDE] ?
Output line: 33.8%

Input line: Proceed to CC(=O)Oc1ccccc1C(=O)O
Output line: 34.9%

Input line: # iterate: CCCC(CCC)C(=O)O
Output line: 35.2%

Input line: What about COc1ccc(Cc2nccc3cc(OC)c(OC)cc23)cc1OC ?
Output line: 34.1%

Input line: Repeat with COc1ccc2c(c1)c(CC(=O)O)c(C)n2C(=O)c1ccc(Cl)cc1
Output line: 33.4%

* * *

Species: Rattus norvegicus
Assay: Open TG-GATES - Regimen: Single
Type: toxicity, organism-based, Sprague-Dawley
Set-up: regimen Single, gender Male, age 6 weeks
Conditions: in vivo, po, 300 mg/kg, 24 h, tissue Blood, route gavage, dose level Middle
metric: PT (s)
Number in s, nothing else.

Input line: Requested read-out: PT. Entry: Clc1ccccc1CN1CCc2sccc2C1 [TICLOPIDINE]
Output line: 12.1

Input line: And then O=C(O)c1cc(/N=N/c2ccc(S(=O)(=O)Nc3ccccn3)cc2)ccc1O [SULFASALAZINE] , what is it?
Output line: 12.4

Input line: # iterate: C[C@H](CS)C(=O)N1CCC[C@H]1C(=O)O [CAPTOPRIL]
Output line: 11.4

Input line: Same question, O=C(O)c1cn(C2CC2)c2cc(N3CCNCC3)c(F)cc2c1=O [CIPROFLOXACIN] this time
Output line: 12.4

Input line: Try this compound too: CCc1cc(C(N)=S)ccn1 [ETHIONAMIDE]
Output line: 13.6

* * *

Organism: Rattus norvegicus
Assay: Open TG-GATES - Regimen: Single
Type: toxicity, organism-based, Sprague-Dawley
Set-up: regimen Single, gender Male, age 6 weeks
Settings: in vivo, po, 100 mg/kg, 24 h, tissue Blood, route gavage, dose level Low
metric: APTT (s)
Provide only the numeric value, understood in s.

Input line: Reported APTT, compound Clc1ccccc1CN1CCc2sccc2C1 [TICLOPIDINE] : ____
Output line: 21.2

Input line: # repeat for O=C(O)c1cc(/N=N/c2ccc(S(=O)(=O)Nc3ccccn3)cc2)ccc1O [SULFASALAZINE]
Output line: 17.9

Input line: Then C[C@H](CS)C(=O)N1CCC[C@H]1C(=O)O [CAPTOPRIL] ?
Output line: 17.2

Input line: What do we get for CCc1cc(C(N)=S)ccn1 [ETHIONAMIDE] ?
Output line: 16.3

* * *

Species: Rattus norvegicus
Assay: Open TG-GATES - Regimen: Single
Assay type: toxicity, organism-based, Sprague-Dawley
Parameters: regimen Single, gender Male, age 6 weeks
Settings: in vivo, po, 1000 mg/kg, 6 h, tissue Plasma, route gavage, dose level High
metric: BUN (mg/dL)
State just the number; it will be interpreted in mg/dL.

Input line: Recorded BUN of O=C(O)c1cn(C2CC2)c2cc(N3CCNCC3)c(F)cc2c1=O [CIPROFLOXACIN] , please.
Output line: 10

Input line: Try this compound next: O=C(O)c1cc(/N=N/c2ccc(S(=O)(=O)Nc3ccccn3)cc2)ccc1O [SULFASALAZINE]
Output line: 8.4

Input line: Can you check CCc1cc(C(N)=S)ccn1 [ETHIONAMIDE] next?
Output line: 16

Input line: Try this compound too: C[C@H](CS)C(=O)N1CCC[C@H]1C(=O)O [CAPTOPRIL]
Output line: 21.2

* * *

What Ret was measured for each of the following?
Species on record: Rattus norvegicus
Test: Open TG-GATES - Regimen: Single
Type: toxicity, organism-based, Sprague-Dawley
Design: regimen Single, gender Male, age 6 weeks
Conditions: in vivo, po, 100 mg/kg, 24 h, tissue Blood, route gavage, dose level Low

Input line: Consider the compound CCc1cc(C(N)=S)ccn1 [ETHIONAMIDE] and give its measured Ret.
Output line: 8%

Input line: Input O=C(O)c1cc(/N=N/c2ccc(S(=O)(=O)Nc3ccccn3)cc2)ccc1O [SULFASALAZINE]
Output line: 6.3%

Input line: How about this compound: O=C(O)c1cn(C2CC2)c2cc(N3CCNCC3)c(F)cc2c1=O [CIPROFLOXACIN]
Output line: 9.2%

Input line: What about this compound? C[C@H](CS)C(=O)N1CCC[C@H]1C(=O)O [CAPTOPRIL]
Output line: 8.7%

Input line: What about this compound? Clc1ccccc1CN1CCc2sccc2C1 [TICLOPIDINE]
Output line: 6.3%

* * *

Organism: Rattus norvegicus
Test: Open TG-GATES - Regimen: Daily Repeat
Type: toxicity, organism-based, Sprague-Dawley
Design: regimen Daily Repeat, gender Male, age 6 weeks
Conditions: in vivo, po, 0 mg/kg, […], tissue Plasma, route gavage, dose level Control, time 7 day
Would you mind telling me the reported Ca of each entry?
Just the number please, in mg/dL, no unit attached.

Input line: Entry under review: Cn1c(=O)c2[nH]cnc2n(C)c1=O.O . Reported Ca?
Output line: 10.3

Input line: Check NC(=O)N/N=C/c1ccc([N+](=O)[O-])o1 too.
Output line: 11.2

Input line: Also need NC(=O)N1c2ccccc2C=Cc2ccccc21 [CARBAMAZEPINE] , thanks.
Output line: 10.5

Input line: Try CSc1ccc2c(c1)N(CCC1CCCCN1C)c1ccccc1S2 (stereo unspecified) next.
Output line: 11.4

Input line: And for COc1ccc2c(c1)c(CC(=O)O)c(C)n2C(=O)c1ccc(Cl)cc1 ?
Output line: 10.7

Input line: Now the compound O=C(O)c1cc(/N=N/c2ccc(S(=O)(=O)Nc3ccccn3)cc2)ccc1O
Output line: 10.7

Input line: Continue with COc1ccc(Cc2nccc3cc(OC)c(OC)cc23)cc1OC
Output line: 10.3

Input line: CC(=O)Oc1ccccc1C(=O)O ?
Output line: 10.7

Input line: Next entry: O=C(O)c1cn(C2CC2)c2cc(N3CCNCC3)c(F)cc2c1=O
Output line: 11.3

Input line: Subsequent entry: CN(C)CCC=C1c2ccccc2CCc2ccccc21
Output line: 10.9

Input line: Lookup CCc1cc(C(N)=S)ccn1 [ETHIONAMIDE]
Output line: 10.2

* * *

Organism: Rattus norvegicus
Experiment: Open TG-GATES - Regimen: Single
Type: toxicity, organism-based, Sprague-Dawley
Parameters: regimen Single, gender Male, age 6 weeks
Conditions: in vivo, po, 300 mg/kg, 6 h, tissue Blood, route gavage, dose level Middle
Kindly supply the reported Eos values for the records listed here.

Input line: What measured Eos goes with CCc1cc(C(N)=S)ccn1 [ETHIONAMIDE] ?
Output line: 0.8%

Input line: Try this compound too: Clc1ccccc1CN1CCc2sccc2C1
Output line: 0.8%

Input line: Similarly, C[C@H](CS)C(=O)N1CCC[C@H]1C(=O)O ?
Output line: 1.2%

Input line: Also check O=C(O)c1cc(/N=N/c2ccc(S(=O)(=O)Nc3ccccn3)cc2)ccc1O
Output line: 1%

Input line: Also check O=C(O)c1cn(C2CC2)c2cc(N3CCNCC3)c(F)cc2c1=O
Output line: 1%

* * *

Species on record: Rattus norvegicus
Assay: Open TG-GATES - Regimen: Single
Format: toxicity, organism-based, Sprague-Dawley
Set-up: regimen Single, gender Male, age 6 weeks
Conditions: in vivo, po, 100 mg/kg, 9 h, tissue Blood, route gavage, dose level Low
Label -1 if Ret falls below 8%; label 1 in every other case.

Input line: Please tell me: is the molecule O=C(O)c1cc(/N=N/c2ccc(S(=O)(=O)Nc3ccccn3)cc2)ccc1O at or over 8% in terms of Ret?
Output line: -1

Input line: Repeat for the following molecule: Clc1ccccc1CN1CCc2sccc2C1
Output line: -1

Input line: Can you handle O=C(O)c1cn(C2CC2)c2cc(N3CCNCC3)c(F)cc2c1=O next?
Output line: 1

Input line: Same lookup for CCc1cc(C(N)=S)ccn1 [ETHIONAMIDE] , please.
Output line: 1

* * *

So I've got a bunch of molecules here, and I need their Eos values.
Species: Rattus norvegicus
Experiment: Open TG-GATES - Regimen: Single
Type: toxicity, organism-based, Sprague-Dawley
Set-up: regimen Single, gender Male, age 6 weeks
Details: in vivo, po, 100 mg/kg, 3 h, tissue Blood, route gavage, dose level Low
Lab book: enter the figure in %, no units written.

Input line: // lookup Eos for O=C(O)c1cc(/N=N/c2ccc(S(=O)(=O)Nc3ccccn3)cc2)ccc1O
Output line: 1

Input line: Okay, and O=C(O)c1cn(C2CC2)c2cc(N3CCNCC3)c(F)cc2c1=O ?
Output line: 0.8

Input line: Likewise for C[C@H](CS)C(=O)N1CCC[C@H]1C(=O)O ?
Output line: 1

Input line: How about Clc1ccccc1CN1CCc2sccc2C1 ?
Output line: 0.8

Input line: Similarly, CCc1cc(C(N)=S)ccn1 [ETHIONAMIDE] ?
Output line: 1
